The values you see were collected from patent US20250197488A1.

tested-system: T1, IL-11 (Cat. 12225-HNCE, Sino Biological Inc.) (UniProt P20809 22-199, limits assumed)
T1 sequence (looked up): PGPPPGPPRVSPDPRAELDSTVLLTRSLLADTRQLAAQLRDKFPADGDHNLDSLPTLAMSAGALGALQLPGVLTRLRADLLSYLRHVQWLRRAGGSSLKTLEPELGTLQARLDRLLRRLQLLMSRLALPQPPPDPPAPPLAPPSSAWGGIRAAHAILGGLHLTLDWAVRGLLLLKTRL
procedure-text: competition ELISA, IL-11/IL-11Rα/GP130 complex
# IC50 per record follows
Numeric answer only, unit µg/mL assumed.

Query: IC50; subject: hz8C8-VHm2 + hz8C8-VL (antibody, human IgG1, kappa, V domains shown, human IgG1 constant regions) VH: EVQLVESGGGLVQPGGSLRLSCAASGFTFSSFGMHWVRQAPGKGLEWVAYITAGSNTIYYADTVKGRFTISRDNAKNSLYLQMNSLRAEDTAVYYCAREYYSYDEGFAYWGQGTLVTVSS VL: EIVLTQSPATLSLSPGERATLSCSVSSSISSNYLHWYQQKPGQAPRLLIYRTSNLASGIPARFSGSGSGTDFTLTISSLEPEDFAVYYCQQGVDVPFTFGQGTKLEIKR
Reply: 0.694

Moving on to the next binder.
Query: IC50; subject: hz8C8-VHm1 + hz8C8-VLm1 (antibody, human IgG1, kappa, V domains shown, human IgG1 constant regions) VH: EVQLVESGGGLVQPGGSLRLSCAASGFTFSSFGMHWVRQAPGKGLEWVAYITPGSNTIYYADTVKGRFTISRDNAKNSLYLQMNSLRAEDTAVYYCAREYYSYDEGFAYWGQGTLVTVSS VL: EIVLTQSPATLSLSPGERATLSCSVSSSIPSNYLHWYQQKPGQAPRLLIYRTSNLASGIPARFSGSGSGTDFTLTISSLEPEDFAVYYCQQGVDVPFTFGQGTKLEIKR
Reply: 1.24
